# Assay text: chemical genetic growth profiling, strain panel (AID 1159580);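 further: tested at 20 µM; growth read once vehicle control cultures reached saturation at 30 °C; 1 = growth at the plate median or of vehicle wells; lower values mean less growth of the strain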
# Setup conditions: S. cerevisiae deletion strains, growth OD, locus YGL227W, strain vid30, stronger effect = lower value
Out of some 5,500 compounds screened, about 2,000 (36%) were called active. Not shown: some 18% with an inconclusive outcome. The list shows a part of the results.
# normalized growth per entry
Quantity measured: normalized growth

- O=C1C=C2C(=CCOC2O)O1 (stereo not given): 0.843 (active)
- CC(=O)O[C@]1(C(C)=O)CCC2C3C=C(Cl)C4=CC(=O)[C@@H]5C[C@@H]5[C@]4(C)C3CC[C@@]21C (stereo not given in full): 0.997 (inactive)
- CCC(=O)c1c(O)cc(O)cc1O: 0.993 (inactive)
- CCCCCCC(C)OC(=O)COc1ccc(Cl)cc1Cl (stereo not given): 0.979 (inactive)
- NC(N)=NC(=O)c1nc(Cl)c(N)nc1N: 1.03 (inactive)
- COC1=CC(=O)C(C(=O)c2ccccc2)=CC1=O: 0.986 (inactive)
- Cc1cc(OC(=O)c2c(C)cc(O)cc2O)cc(O)c1C(=O)O: 0.996 (inactive)
- COC(=O)c1c(C)cc(O)cc1O: 1 (inactive)
- CCC1OC(=O)[C@H](C)C(=O)[C@H](C)[C@@H](OC2O[C@H](C)C[C@H](N(C)C)[C@H]2O)[C@](C)(OC)C2(CCCn3cnc(-c4cccnc4)c3)C[C@@H](C)C(=O)[C@H](C)[C@H]3N(C2)C(=O)O[C@]13C (stereo not given in full): 0.978 (inactive)
- COc1cc(O)c2c(=O)c(O)c(-c3ccc(O)c(O)c3)oc2c1: 1.01 (inactive)
- CC(C)c1c(O)c(-c2cc3c(c(C(C)C)c2O)CCC2C(C)(C)CCC[C@]32C)cc2c1CCC1C(C)(C)CCC[C@]21C (stereo not given in full): 0.982 (inactive)
- COc1ccc(-c2cc(=O)c3c(O)cc(O[C@@H]4O[C@H](CO[C@H]5O[C@H](C)[C@@H](O)[C@H](O)[C@@H]5O)[C@@H](O)[C@H](O)[C@H]4O)cc3o2)cc1O: 1.01 (inactive)
- O=c1ccc2c(O)c3ccoc3cc2o1: 0.981 (inactive)
- CC(C)(C)NCC(O)c1cc(Cl)c(N)c(Cl)c1 (stereo not given): 1 (inactive)
- O=c1c(O)c(-c2ccc(O)cc2O)oc2cc(O)cc(O)c12: 1.01 (inactive)
- CNC(=O)Oc1cccc2c1OC(C)(C)O2: 0.999 (inactive)
- CC(=O)[C@@]1(O)CCC2C3C[C@H](C)C4=CC(=O)C=CC4(C)[C@@]3(F)[C@@H](O)C[C@@]21C (stereo not given in full): 0.988 (inactive)
- CC(C)c1c(O)ccc2c1CCC1C(C)(C)CCC[C@]21C (stereo not given in full): 0.691 (active)
- COc1cc2occc2c2oc(=O)ccc12: 1.03 (inactive)
- COc1ccccc1/C=C\C(=O)O: 1 (inactive)
- C[C@@H]1O[C@@H](OC[C@H]2OC(Oc3c(-c4ccc(OCCO)c(OCCO)c4)oc4cc(OCCO)cc(O)c4c3=O)[C@H](O)[C@@H](O)[C@@H]2O)[C@H](O)[C@H](O)[C@H]1O (stereo not given in full): 0.938 (inactive)
- COc1ccc(-c2oc3cc(O[C@H]4O[C@H](CO)[C@@H](O)[C@H](O)[C@H]4O)c(OC)c(O)c3c(=O)c2OC)cc1O: 0.996 (inactive)
- CCN[C@@H]1C[C@H](N)[C@@H](O[C@H]2OC(CN)=CC[C@H]2N)[C@H](O)[C@H]1OC1OC[C@](C)(O)[C@H](NC)[C@H]1O (stereo not given in full): 0.995 (inactive)
- CC(CC(C(N)=O)(c1ccccc1)c1ccccc1)N(C)C (stereo not given): 0.989 (inactive)
- CC1O[C@@H](Oc2c(-c3ccc(O)c(O)c3)oc3cc(O)cc(O)c3c2=O)[C@H](O)[C@H](O)[C@H]1O (stereo not given in full): 0.979 (inactive)
- CC(CC(O)C1OC1(C)C)[C@@H]1CCC2(C)C3=CCC4C(C)(C)C(=O)CCC4(C)C3CC[C@@]12C (stereo not given in full): 0.998 (inactive)
- O=c1c(O)c(-c2ccc(O)c(O)c2)oc2cc(O)cc(O)c12: 1 (inactive)
- O=c1c(O)c(-c2ccc(O)c(O)c2)oc2c(O)c(O)cc(O)c12: 1.03 (inactive)
- CC(C)[N+](C)(CCC(C(N)=O)(c1ccccc1)c1ccccc1)C(C)C: 0.98 (inactive)
- CCOC(=O)c1c(C)cc(OC)cc1O: 0.963 (inactive)
- CO[C@@]1(NC(=O)C(C(=O)O)c2ccc(O)cc2)C(=O)N2C(C(=O)O)=C(CSc3nnnn3C)CO[C@@H]21 (stereo not given in full): 0.99 (inactive)
- COc1ccc(Cl)cc1C(=O)NCCc1ccc(S(=O)(=O)NC(=O)NC2CCCCC2)cc1: 0.998 (inactive)
- COc1ccc2ccc(=O)oc2c1: 0.983 (inactive)
- CC(=O)Oc1ccc2c(c1OC(C)=O)OCC1(O)Cc3c(cc(OC(C)=O)c(OC(C)=O)c3OC(C)=O)C21 (stereo not given): 1.02 (inactive)
- Cc1cc(C2CCCCC2)n(O)c(=O)c1: 0.0707 (active)
- O=C1[O][Bi][O]c2ccccc21: 1.05 (inactive)
- CC(C)(C)NCC(O)c1cc(O)cc(O)c1 (stereo not given): 0.98 (inactive)
- COc1ccc(-c2oc3c(CC=C(C)C)c(O[C@@H]4O[C@H](CO)[C@@H](O)[C@H](O)[C@H]4O)cc(O)c3c(=O)c2O[C@@H]2O[C@@H](C)[C@H](O)[C@@H](O)[C@H]2O)cc1: 1.04 (inactive)
- O=c1ccc2cc(OC3OC(CO)C(O)C(O)C3O)c(O)cc2o1 (stereo not given): 0.989 (inactive)
- Cc1ccccc1OCC(O)CO (stereo not given): 0.976 (inactive)
